These measurements were taken from patent US20180002319A1.

- Test system: Puccinia triticina
- experiment_summary: Wheat Brown Rust (PUCCRT) fungicidal activity
- Type: in vivo
- condition_details: 24 h, High Volume application, 100 ppm, 1 day protectant, read-out: PUCCRT disease control, 1DP (1 Day Protectant)
Exercise: state measured pest or weed control at 100 ppm for each of the compounds provided.

COc1ccnc(C(=O)N[C@H]2CCCC[C@H](OC3CCCC3)[C@@H](OC)[C@H](C)OC2=O)c1O
< 80%

Answer for every listed entry: what is its pest or weed control at 100 ppm? The entries follow.
1. CCCO[C@H]1CCCC[C@H](NC(=O)c2nccc(OC)c2O)C(=O)O[C@@H](C)[C@@H]1Oc1ccccc1
2. CCCCCO[C@H]1[C@H](C)OC(=O)[C@@H](NC(=O)c2nccc(OC)c2O)CCCC[C@@H]1OC(=O)c1ccccc1
3. CCCO[C@H]1COCC[C@H](NC(=O)c2nccc(OC)c2O)C(=O)O[C@@H](C)[C@@H]1Oc1ccccc1
4. COc1ccc(CO[C@H]2[C@H](C)OC(=O)[C@@H](NC(=O)c3nccc(OC)c3O)CCOC[C@@H]2OCc2ccc(OC)cc2)cc1
5. COc1ccnc(C(=O)N[C@H]2CCOC[C@H](OC(=O)C(C)C)[C@@H](Oc3ccccc3)[C@H](C)OC2=O)c1O

1: > 80%; 2: > 80%; 3: > 80%; 4: > 80%; 5: < 80%

Answer for every listed entry: what is its pest or weed control at 100 ppm? The entries follow.
1. COc1ccnc(C(=O)N[C@H]2CCCC[C@H](OC)[C@@H](OC)[C@H](C)OC2=O)c1O
2. CCCOC(=O)O[C@H]1CCCC[C@H](NC(=O)c2nccc(OC)c2O)C(=O)O[C@@H](C)[C@@H]1OCC(C)C
3. COc1ccnc(C(=O)N[C@H]2COCC[C@H](OCC(C)C)[C@@H](OCC(C)C)[C@H](C)OC2=O)c1O

["> 80%", "< 80%", "> 80%"]

Answer for every listed entry: what is its pest or weed control at 100 ppm? The entries follow.
1. CCCCO[C@H]1CCOC[C@H](NC(=O)c2nccc(OC)c2O)C(=O)O[C@@H](C)[C@@H]1OC(=O)C1CC1
2. COc1ccnc(C(=O)N[C@H]2CCCC[C@H](Oc3ccccc3)[C@@H](OC3CCCC3)[C@H](C)OC2=O)c1O
3. COc1ccnc(C(=O)N[C@H]2CCCC[C@H](CC3CCCC3)[C@@H](OC(=O)C(C)C)[C@H](C)OC2=O)c1O

1. > 80%
2. > 80%
3. < 80%

Answer for every listed entry: what is its pest or weed control at 100 ppm? The entries follow.
1. COc1ccnc(C(=O)N[C@H]2COCC[C@H](Cc3ccccc3)[C@@H](OCC(C)C)[C@H](C)OC2=O)c1O
2. CC[C@H]1CCOC[C@H](NC(=O)c2nccc(OC)c2O)C(=O)O[C@@H](C)[C@@H]1Oc1ccccc1

1: < 80%; 2: > 80%

====

- Test system: Puccinia triticina
- experiment_summary: Wheat Brown Rust (PUCCRT) fungicidal activity
- Format: in vivo
- condition_details: 24 h, High Volume application, 100 ppm, 1 day protectant, read-out: PUCCRT disease control, 1DP (1 Day Protectant)
quantity_name: pest or weed control at 100 ppm

CCC[C@H]1CCCC[C@H](NC(=O)c2nccc(OC)c2O)C(=O)O[C@@H](C)[C@@H]1OCC(C)C [compound 105]
< 80%
CCCCO[C@H]1CCOC[C@H](NC(=O)c2nccc(OC)c2OCOC(C)=O)C(=O)O[C@@H](C)[C@@H]1OC(=O)C1CC1 [Compound 5]
> 80%
CCCCO[C@H]1CCOC[C@H](NC(=O)c2nccc(OC)c2OCOC(C)=O)C(=O)O[C@@H](C)[C@@H]1OC(=O)c1ccccc1 [Compound 4]
> 80%
CC[C@H]1CCOC[C@H](NC(=O)c2nccc(OC)c2O)C(=O)O[C@@H](C)[C@@H]1OC(=O)c1ccccc1 [Compound 135]
> 80%
COc1ccnc(C(=O)N[C@H]2CCCC[C@H](OCc3ccccc3)[C@@H](OCc3ccccc3)[C@H](C)OC2=O)c1OC(C)=O [Compound 9]
> 80%

Answer for every listed entry: what is its pest or weed control at 100 ppm? The entries follow.
1. COc1ccnc(C(=O)N[C@H]2CCCC[C@H](OC)[C@@H](OCC(C)C)[C@H](C)OC2=O)c1OCOC(C)=O [Compound 12]
2. COc1ccnc(C(=O)N[C@H]2CCOC[C@H](Cc3ccccc3)[C@@H](OCC(C)C)[C@H](C)OC2=O)c1OCOC(C)=O [Compound 16]
3. COc1ccnc(C(=O)N[C@H]2CCCC[C@H](Cc3ccccc3)[C@@H](OCC(C)C)[C@H](C)OC2=O)c1O [Compound 102]
4. COc1ccnc(C(=O)N[C@H]2COCC[C@H](Cc3ccc(F)cc3)[C@@H](OCC3CC3)[C@H](C)OC2=O)c1O [Compound 133]
5. COc1ccnc(C(=O)N[C@H]2CCCC[C@H](OCC(C)C)[C@@H](Oc3ccccc3)[C@H](C)OC2=O)c1OCOC(C)=O [Compound 13]
6. CCCCCO[C@H]1[C@H](C)OC(=O)[C@@H](NC(=O)c2nccc(OC)c2OCOC(C)=O)CCCC[C@@H]1Oc1ccccc1 [Compound 17]
7. COc1ccnc(C(=O)N[C@H]2CCOC[C@H](OCC(C)C)[C@@H](OCC(C)C)[C@H](C)OC2=O)c1O [Compound 116]
8. COc1ccnc(C(=O)N[C@H]2CCOC[C@H](OCC(C)C)[C@@H](Oc3ccccc3)[C@H](C)OC2=O)c1O [Compound 118]

1. > 80%
2. > 80%
3. > 80%
4. > 80%
5. > 80%
6. > 80%
7. < 80%
8. > 80%

====

- Tested on: Zymoseptoria tritici
- experiment_summary: Leaf Blotch of Wheat (SEPTTR) fungicidal activity
- Assay type: in vivo
- condition_details: 72 h, Low Volume application, 121.5 g/H, wheat leaf blotch, 3 day curative, read-out: SEPTTR disease control, 3DC (3 Day Curative)
quantity_name: pest or weed control at 121.5 g/ha

COc1ccnc(C(=O)N[C@H]2CCCC[C@H](CC3CCCC3)[C@@H](OC(=O)C(C)C)[C@H](C)OC2=O)c1OC(C)=O
< 80%
CC[C@H]1CCOC[C@H](NC(=O)c2nccc(OC)c2OCOC(C)=O)C(=O)O[C@@H](C)[C@@H]1OCC(C)C
< 80%

Moving on to another compound below.
Report pest or weed control at 121.5 g/ha for CCC[C@H]1CCCC[C@H](NC(=O)c2nccc(OC)c2OCOC(C)=O)C(=O)O[C@@H](C)[C@@H]1OC(=O)C(C)C please.
< 80%

====

- System: Zymoseptoria tritici
- experiment_summary: Leaf Blotch of Wheat (SEPTTR) fungicidal activity
- Format: in vivo
- condition_details: 72 h, Low Volume application, 121.5 g/H, wheat leaf blotch, 3 day curative, read-out: SEPTTR disease control, 3DC (3 Day Curative)
quantity_name: pest or weed control at 121.5 g/ha

Sample answers from the record:
CCCOC(=O)O[C@H]1CCCC[C@H](NC(=O)c2nccc(OC)c2OCOC(C)=O)C(=O)O[C@@H](C)[C@@H]1OCC(C)C [Compound 38]
> 80%
COc1ccnc(C(=O)N[C@H]2CCCC[C@H](OC)[C@@H](OC)[C@H](C)OC2=O)c1OCOC(C)=O [Compound 22]
< 80%
COc1ccnc(C(=O)N[C@H]2CCOC[C@H](OC)[C@@H](Oc3ccccc3)[C@H](C)OC2=O)c1OC(C)=O [Compound 48]
> 80%
COc1ccnc(C(=O)N[C@H]2COCC[C@H](Cc3ccc(F)cc3)[C@@H](OC(=O)C(C)C)[C@H](C)OC2=O)c1OCOC(C)=O [Compound 76]
> 80%
C=CCO[C@@H]1[C@@H](CC2CCCC2)CCCC[C@H](NC(=O)c2nccc(OC)c2OCOC(C)=O)C(=O)O[C@H]1C [Compound 53]
< 80%

Answer for every listed entry: what is its pest or weed control at 121.5 g/ha? The entries follow.
1. CCC[C@H]1CCCC[C@H](NC(=O)c2nccc(OC)c2OCOC(C)=O)C(=O)O[C@@H](C)[C@@H]1OCC(C)C [compound 30]
2. COc1ccnc(C(=O)N[C@H]2CCCC[C@H](Oc3ccccc3)[C@@H](Oc3ccccc3)[C@H](C)OC2=O)c1OC(C)=O [Compound 25]
3. COc1ccnc(C(=O)N[C@H]2CCCC[C@H](Cc3ccccc3)[C@@H](Oc3ccccc3)[C@H](C)OC2=O)c1OCOC(C)=O [Compound 62]

1. < 80%
2. < 80%
3. > 80%

Answer for every listed entry: what is its pest or weed control at 121.5 g/ha? The entries follow.
1. CCCCCO[C@H]1[C@H](C)OC(=O)[C@@H](NC(=O)c2nccc(OC)c2OCOC(C)=O)CCCC[C@@H]1OC(=O)c1ccccc1 [Compound 15]
2. COc1ccnc(C(=O)N[C@H]2COCC[C@H](Cc3ccccc3)[C@@H](OCC(C)C)[C@H](C)OC2=O)c1OC(C)=O [Compound 21]
3. COc1ccnc(C(=O)N[C@H]2CCCC[C@H](OC)[C@@H](OCC(C)C)[C@H](C)OC2=O)c1OC(C)=O [Compound 28]

1: > 80%; 2: > 80%; 3: > 80%
